system: 677734-321-R-J1-PDC complex spheroid viability; experiment: Anticancer human tumor 677734-321-R-J1-PDC patient-derived soft tissue sarcoma cell line growth inhibition [POLQ]; details: second compound 1 µM; first compound 1 µM; stronger effect = lower value
experimental_readout: viability, T/C (%)
Numbers only, in %.

- compound: "CCCS(=O)(=O)Nc1ccc(F)c(C(=O)c2c[nH]c3ncc(-c4ccc(Cl)cc4)cc23)c1F + Cc1cccc(N(C)C(=O)C2C(O)CCN2c2nc(C)cc(C(F)(F)F)c2C#N)c1"
  reading_unit: "%"
  viability, T/C: 108
- compound: "C=CC(=O)N1CCN(c2nc(=O)n(-c3c(C)ccnc3C(C)C)c3nc(-c4c(O)cccc4F)c(F)cc23)C(C)C1 (stereo not drawn) + Nc1ccc(C#CCN(C(=O)Cc2ncc(C(F)(F)F)cc2C(F)(F)F)c2ccc(F)cc2)nn1"
  reading_unit: "%"
  viability, T/C: 103

Please turn your attention to the following entry.
Request: # return recorded viability, T/C for input CC1COCCN1c1cc(C2(O)CC3CCC(C2)O3)c2cnn(-c3ccn[nH]3)c2n1 (stereo not drawn) + COC1C(OC(N)=O)C(O)C(Oc2ccc3c(O)c(NC(=O)c4ccc(O)c(CC=C(C)C)c4)c(=O)oc3c2C)OC1(C)C
Result: 15.9

* * *

Give measured pIC50 for each item. Keep answers brief.
tested on: 677734-321-R-J1-PDC complex spheroid viability; assay: Anticancer human tumor 677734-321-R-J1-PDC cell line growth inhibition [POLQ]; conditions: curve of first compound; second compound 0.0316 µM;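 also: spheroids exposed to compounds for one week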
pIC50: −log10 of the molar value.

- molecule: "CC1COCCN1c1cc(C2(S(C)(=N)=O)CC2)nc(-c2ccnc3[nH]ccc23)n1 (stereo not given) + COC1C(OC(N)=O)C(O)C(Oc2ccc3c(O)c(NC(=O)c4ccc(O)c(CC=C(C)C)c4)c(=O)oc3c2C)OC1(C)C"
  pIC50: 5.22
- molecule: "CC(=O)O[C@H]1C(=O)[C@@]2(C)[C@H]([C@H](OC(=O)c3ccccc3)[C@]3(O)C[C@H](OC(=O)[C@H](O)[C@@H](NC(=O)c4ccccc4)c4ccccc4)C(C)=C1C3(C)C)[C@]1(OC(C)=O)CO[C@@H]1C[C@@H]2O + Nc1ccc(C#CCN(C(=O)Cc2ncc(C(F)(F)F)cc2C(F)(F)F)c2ccc(F)cc2)nn1"
  pIC50: "> 8.02"
- molecule: "O=C(Nc1ccc(O)c(NS(=O)(=O)c2ccc(F)cc2)c1)c1ccc(-c2ccccc2)cc1 + Nc1ccc(C#CCN(C(=O)Cc2ncc(C(F)(F)F)cc2C(F)(F)F)c2ccc(F)cc2)nn1"
  pIC50: 5.30

Your task in this section: give pIC50 for each listed record.
1. COc1cc2cc(C(=O)CCC(=O)O)sc2cc1OC + COC1C(OC(N)=O)C(O)C(Oc2ccc3c(O)c(NC(=O)c4ccc(O)c(CC=C(C)C)c4)c(=O)oc3c2C)OC1(C)C
2. COc1ccc([C@@H](O)c2cc(-c3ncnc4cc(N5CCOCC5)ccc34)c(F)cc2Cl)nn1 + Nc1ccc(C#CCN(C(=O)Cc2ncc(C(F)(F)F)cc2C(F)(F)F)c2ccc(F)cc2)nn1
3. COc1cc2cc(C(=O)CCC(=O)O)sc2cc1OC + Nc1ccc(C#CCN(C(=O)Cc2ncc(C(F)(F)F)cc2C(F)(F)F)c2ccc(F)cc2)nn1

Result:
1. < 5.00
2. 5.13
3. < 5.00

Data provenance is PubChem BioAssay AID1963842.
